tested on: HCI-012 (organoid from a breast cancer xenograft); experiment: CTG-3D luminescence at 96 h relative to day-0 seeding control (ratio to day 0); higher = more growth / less cytotoxicity; PDxO 3D drug screen (set 2), 96 h, CTG-3D normalised to day-0 seeding control.; settings: 0.005 µM; days in culture: 243
observation_type: CTG-3D luminescence at 96 h
Lab note: record the figure alone, no unit after it.

CCOc1ccn(-c2ccc(F)cc2)c(=O)c1C(=O)Nc1ccc(Oc2ccnc(N)c2Cl)c(F)c1	1.9

### Prompt Dear colleague, I am looking for the recorded CTG-3D luminescence at 96 h of the following compound: "Cc1c(CN2CCN(C(=O)[C@H](C)O)CC2)sc2c(N3CCOCC3)nc(-c3cnc(N)nc3)nc12"
### Response 2.13

### Prompt Dear colleague, I am looking for the recorded CTG-3D luminescence at 96 h of the following compound: "Nc1cc(C(F)(F)F)c(-c2cc(N3CCOCC3)nc(N3CCOCC3)n2)cn1"
### Response 2.35

### Prompt Dear colleague, I am looking for the recorded CTG-3D luminescence at 96 h of the following compound: "CO[C@H]1C[C@@H]2CC[C@@H](C)[C@@](O)(O2)C(=O)C(=O)N2CCCC[C@H]2C(=O)O[C@H]([C@H](C)C[C@@H]2CC[C@@H](O)[C@H](OC)C2)CC(=O)[C@H](C)/C=C(\C)[C@@H](O)[C@@H](OC)C(=O)[C@H](C)C[C@H](C)/C=C/C=C/C=C/1C"
### Response 1.47

====

system: HCI-025 (organoid from a breast cancer xenograft); experiment: CTG-3D luminescence at 96 h relative to day-0 seeding control (ratio to day 0); higher = more growth / less cytotoxicity; PDxO 3D drug screen, 96 h, CTG-3D normalised to day-0 seeding control.; details: 0.1 µM; days in culture: 218
Reported CTG-3D luminescence at 96 h values for a set of compounds
Lab note: record the figure alone, no unit after it.

Below: 2 compounds and their reported CTG-3D luminescence at 96 h.
CNC(=O)c1cccc(-c2ccc3c(N4CCOC[C@@H]4C)nc(N4CCOC[C@@H]4C)nc3n2)c1	0.816
CC[C@H](NC(=O)[C@H](C)NC)C(=O)N1C[C@@H](O)C[C@H]1Cc1c(-c2[nH]c3cc(F)ccc3c2C[C@@H]2C[C@H](O)CN2C(=O)[C@H](CC)NC(=O)[C@H](C)NC)[nH]c2cc(F)ccc12	1.23

Lab note: next compound to report on.
### Prompt Dear colleague, I am looking for the recorded CTG-3D luminescence at 96 h of the following compound: "O=C(c1ccc(F)c(F)c1Nc1ccc(I)cc1F)N1CC(O)([C@@H]2CCCCN2)C1"
### Response 1.42

====

test system: HCI-025; test: CTG-3D luminescence at 96 h relative to day-0 seeding control (ratio to day 0); higher = more growth / less cytotoxicity; PDxO 3D drug screen, 96 h, CTG-3D normalised to day-0 seeding control.; details: 100 µM; days in culture: 218
observation_type: CTG-3D luminescence at 96 h
Lab note: record the figure alone, no unit after it.

Below: 5 molecules and their reported CTG-3D luminescence at 96 h.
Cc1nc(-c2cn3c(n2)-c2ccc(-c4cnn(C(C)(C)C(N)=O)c4)cc2OCC3)n(C(C)C)n1 [taselisib]	0.0322
C[C@@H]1COCCN1c1cc(C2([S@](C)(=N)=O)CC2)nc(-c2cc[nH]c3nccc2-3)n1 [ceralasertib]	0.269
CCc1c2c(nc3ccc(O)cc13)-c1cc3c(c(=O)n1C2)COC(=O)[C@]3(O)CC [SN-38]	0.0407
Cc1cc(Nc2ncnc3ccc(NC4=NC(C)(C)CO4)cc23)ccc1Oc1ccn2ncnc2c1 [tucatinib]	0.249
CC1(C)CCC(c2ccc(Cl)cc2)=C(CN2CCN(c3ccc(C(=O)NS(=O)(=O)c4ccc(N[C@H](CCN5CCOCC5)CSc5ccccc5)c(S(=O)(=O)C(F)(F)F)c4)cc3)CC2)C1 [navitoclax]	0.0152

### Prompt Dear colleague, I am looking for the recorded CTG-3D luminescence at 96 h of the following molecule: CCN1CCN(Cc2ccc(Nc3ncc(F)c(-c4cc(F)c5nc(C)n(C(C)C)c5c4)n3)nc2)CC1 [abemaciclib]
### Response 0.0142

### Prompt Dear colleague, I am looking for the recorded CTG-3D luminescence at 96 h of the following molecule: Nc1ccn([C@@H]2O[C@H](CO)[C@@H](O)C2(F)F)c(=O)n1 [gemcitabine]
### Response 0.143

### Prompt Dear colleague, I am looking for the recorded CTG-3D luminescence at 96 h of the following molecule: CC(C)n1nc(-c2ccc3oc(N)nc3c2)c2c(N)ncnc21 [sapanisertib]
### Response 0.0278

This collection of values is drawn from the supplement of paper PMC8882468.
